Tested on: SF-268 CNS
experimentDescription: NCI tumour cell line growth inhibition, 48 h
Where a SMILES comes first, the peptide text is derived from it. [ ]: non-standard residue; d: D form. pGlu = O=C1CC[CH](C(=O)O)N1
Reported GI50 is given for each of the following compounds.

compound: CCNC(=O)C1CCCN1C(=O)C(CCCN=C(N)N)NC(=O)C(CC(C)C)NC(=O)C(CC(C)C)NC(=O)C(Cc1ccc(O)cc1)NC(=O)C(CO)NC(=O)C(Cc1c[nH]c2ccccc12)NC(=O)C(Cc1cnc[nH]1)NC(=O)C1CCC(=O)N1 (stereo not drawn) ([pGlu]HWSYLLRP-NHEt; configuration not given here)
propertyName: GI50
measuredValue: > 100 µM

compound: CN(CCO)CC[C@H](CSc1ccccc1)Nc1ccc(S(=O)(=O)NC(=O)c2ccc(N3CCC([C@@H](O)c4ccccc4-c4ccc(Cl)cc4)CC3)cc2)cc1S(=O)(=O)C(F)(F)F
propertyName: GI50
measuredValue: 3.92 µM

Param readout= GI50; system= SF-268 CNS; entry= COc1cccc(N2CCN(CC(=O)N3CCN(c4nnc(-c5ccc(Cl)cc5)c(-c5ccc(Cl)cc5)n4)CC3)CC2)c1 ; returns value. > 100 µM

---

# key: entry, value: GI50
Tested on: T-47D breast
experimentDescription: NCI tumour cell line growth inhibition, 48 h

Previously resolved entries follow.
molecule: CCCCON(OC(=O)c1ccc2ccccc2c1)C(=O)c1ccccc1
measuredValue: > 100 µM

molecule: C[C@@]1(C(=O)O)CCC[C@]2(C)C1CC[C@@]13CC(=O)[C@@](CO)(CC[C@]12O)C3 (some centres undefined)
measuredValue: 22.2 µM

molecule: C/C=C(\C)C(=O)NC1=CC[C@@]2(C)C(=CCC3C2CC[C@@]2(C)C3CC[C@@H]2C(C)N(C)C)C1=O (some centres undefined)
measuredValue: 1.94 µM

Then there is this molecule:
Look at this molecule and give its reported GI50. CC[C@@H]1c2c(C#N)ncn2-c2cnc(Nc3ccc(C(=O)NC4CCN(C5CCN(CC6CC6)CC5)CC4)cc3OC)nc2N1C1CCCC1 1.3 µM

---

Tested on: A498 renal
experimentDescription: NCI tumour cell line growth inhibition, 48 h; in the data active = GI50 below about 0.43 µM; inactive = the rest
Where a SMILES comes first, the peptide text is derived from it. [ ]: non-standard residue; d: D form. pGlu = O=C1CC[CH](C(=O)O)N1
In this exercise, the only acceptable responses are active, inactive

Study these solved cases before continuing.
molecule: Cc1nnn[n-]1.N.N.N.N.N.[Cl-].[Co+3]
groupLabel: inactive

molecule: ClCc1cccc2c(CCl)cccc12
groupLabel: inactive

molecule: COc1ncnc2c(-c3ccccc3)cn(COCc3ccccc3)c12
groupLabel: inactive

molecule: O=c1[nH]nnc2c1ncn2C1OC(CO)C(O)C1O (stereo unspecified)
groupLabel: inactive

molecule: CCNC(=O)C1CCCN1C(=O)C(CCCN=C(N)N)NC(=O)C(CC(C)C)NC(=O)C(CC(C)C)NC(=O)C(Cc1ccc(O)cc1)NC(=O)C(CO)NC(=O)C(Cc1c[nH]c2ccccc12)NC(=O)C(Cc1cnc[nH]1)NC(=O)C1CCC(=O)N1 (stereo unspecified) ([pGlu]HWSYLLRP-NHEt; configuration not given here)
groupLabel: inactive

Could you now consider this next molecule?
Answer briefly: the call reported for CCN(Cc1cc(Nc2nc(C)cn3c(-c4cn[nH]c4)cnc23)sn1)C(C)(C)CO in this assay. active

---

Tested on: MCF7 breast
experimentDescription: NCI tumour cell line growth inhibition, 48 h
propertyName: TGI

Recorded TGI for c1ccc(-c2nnc(-c3ccccn3)c3c2C[C@@H]2C[C@@H]4Cc5c(-c6ccccn6)nnc(-c6ccccn6)c5[C@@H]4[C@H]32)nc1 with MCF7 breast, please? > 100 µM

Identify the measured TGI of CN1C2=C(CC3=C1CC(C)(C)CC3=O)C(=O)CC(C)(C)C2 for MCF7 breast. > 100 µM

What measured TGI is associated with CN(C)CCCNC(=O)c1c(O)c2ccccc2[nH]c1=O on MCF7 breast? > 100 µM

Hello, I am looking for reported TGI with MCF7 breast for CN(Cc1ccccc1)C(=NC#N)N(Cc1ccccc1)Cc1ccccc1 . Could you help? 93.2 µM

What is its TGI for MCF7 breast? Entry: O=C(O)c1cc(CC2Cc3cc4c(cc3C2=O)CCC4)cc2c1CCC2 (stereo not drawn) > 100 µM

---

Test system: SK-OV-3 ovarian
experimentDescription: NCI tumour cell line growth inhibition, 48 h
propertyName: TGI (µM)
Give just the number in µM; leave the unit off.

Consider the reported TGI for these molecules:
compoundStructureString: COC1=C(N)C(=O)c2nc(C)ccc2C1=O
measuredValue: 38.4
//
compoundStructureString: CCN(CC)CCNc1ccc2nnn3c4ccc(C)cc4c(=O)c1c23
measuredValue: 25.8
//
compoundStructureString: O=C(O)Cc1c(-c2ccc([N+](=O)[O-])cc2)c(=O)oc2cc(O)ccc12
measuredValue: 90

What TGI value was documented for this molecule, CCN(CC)c1c(C(=O)/C=C/c2ccc(Cl)cc2)c(-c2ccccc2)nn(C)c1=O ? 18.7

---

Test system: NCI/ADR-RES ovarian
experimentDescription: NCI tumour cell line growth inhibition, 48 h
propertyName: TGI

Use these answered entries as a reference point.
compound: C/C=C(\C)C(=O)NC1=CC[C@@]2(C)C(=CCC3C2CC[C@@]2(C)C3CC[C@@H]2C(C)N(C)C)C1=O (stereo partly drawn)
propertyName: TGI
measuredValue: 42.5 µM
--
compound: N#CC1(C#N)C2(c3ccccc3)OC(c3ccccc3)(c3cc4ccccc4cc32)C1(C#N)C#N
propertyName: TGI
measuredValue: 43.8 µM
--
compound: CCCc1cc(=O)oc2c3c(c4c(c12)OC(C)(C)CC4)O[C@@H](C)[C@H](C)[C@H]3O
propertyName: TGI
measuredValue: 29.1 µM

Which TGI is listed for COc1cc(C2=C(c3cc(OC)c4ccccc4c3OC)C(=O)c3ccccc3C2=O)c(OC)c2ccccc12 ? > 100 µM

Look up TGI for this compound: CC(C)Cn1cnc2c(SCc3ccc(Cl)cc3Cl)nc(N)nc21 > 100 µM

I'd like to know its TGI. The compound in question is O=c1cc(-c2ccccc2)[nH]c2ccc(N3CCOCC3)cc12 > 100 µM

---

System: NCI-H460 lung
experimentDescription: NCI tumour cell line growth inhibition, 48 h
Listed next: entries and their corresponding TGI.

In the examples that follow, each entry is paired with its recorded TGI.
compound: N.N.N.N.[Co+3].[N-]=[N+]=[N-].[N-]=[N+]=[N-].[N-]=[N+]=[N-]
measuredValue: > 100 µM
--
compound: O=c1ccn2n1Cc1ccccc1C2
measuredValue: > 100 µM
--
compound: CC(=O)C1(Cc2cccc3ccccc23)S(=O)(=O)OCCOS1(=O)=O
measuredValue: 34 µM
--
compound: COc1ccc(/C=C2\CCC(CNc3ccc(S(N)(=O)=O)cc3)C2=O)cc1 (stereo not drawn)
measuredValue: > 77.2 µM
--
compound: CSc1nc(NC2OCC(O)C(O)C2O)c(N)c(=O)[nH]1 (stereo not drawn)
measuredValue: > 100 µM
--
compound: CC1=NN(c2cccc(Cl)c2)C(=N/c2nc3ccccc3s2)/C1=C\c1ccc(Cl)cc1
measuredValue: 34.3 µM
--
compound: CC(=O)OC/C=C/[C@H](O[Si](C)(C)C(C)(C)C)[C@@H](O)/C=C/COC(C)=O
measuredValue: > 100 µM
--
compound: CCOC(=O)c1nn2c(nc1=O)sc1ccc3ccccc3c12
measuredValue: > 100 µM

# ---- query compound ----
Fill in the blank: the reported TGI of C[C@@]1(C(=O)O)CCC[C@]2(C)C1CC[C@@]13CC(=O)[C@@](CO)(CC[C@]12O)C3 (stereo partly drawn) is ____. > 100 µM

---

Tested on: UO-31 renal
experimentDescription: NCI tumour cell line growth inhibition, 48 h
propertyName: GI50

Example entries and their recorded answers appear below.
compoundStructureString: CN1CCC2(CC1)ONC1=NCCN12
systemName: UO-31 renal
GI50: 45.3 µM

compoundStructureString: Oc1c(-c2nnc(-c3ccccc3Cl)o2)sc2nnc(-c3ccccc3)c(-c3ccccc3)c12
systemName: UO-31 renal
GI50: 2.38 µM

compoundStructureString: C=C1C(=O)O[C@H]2[C@H]1CC/C(CNC(=O)/C=C/c1cc(OC)c(OC)c(OC)c1)=C\CC[C@@]1(C)O[C@@H]21
systemName: UO-31 renal
GI50: 1.55 µM

compoundStructureString: CCCCCCCCNc1cc2c3c(c1)CCCN3CCC2
systemName: UO-31 renal
GI50: 3.17 µM

Proceeding to the next compound to report its GI50.
Fill blank: measured GI50 of the compound O=C(c1ccccc1)c1ccccc1-c1ccccc1 is ____. 6.99 µM

---

System: SF-268 CNS
experimentDescription: NCI tumour cell line growth inhibition, 48 h
propertyName: TGI

Examples with answers:
compound: Oc1c(-c2nnc(-c3ccccc3Cl)o2)sc2nnc(-c3ccccc3)c(-c3ccccc3)c12
propertyName: TGI
measuredValue: > 100 µM
//
compound: CCCCCCCCCCCc1nnc(N)o1
propertyName: TGI
measuredValue: > 100 µM
//
compound: O=C1Nc2ccccc2C1=Nc1cccc2ncccc12
propertyName: TGI
measuredValue: > 100 µM
//
compound: C=C(C)[C@@H]1CC[C@]2(C)CC[C@]3(C)[C@H](CC[C@@H]4[C@@]5(C)CC[C@H](O)C(C)(C)[C@@H]5CC[C@]43C)[C@@H]12
propertyName: TGI
measuredValue: > 100 µM
//
compound: C[C@H](NC(=O)[C@@H](C)N)[C@H](Oc1ccc2c(cnn2-c2ccc(F)cc2)c1)c1ccc2c(c1)OCCO2
propertyName: TGI
measuredValue: 10.7 µM

Can you look up the measured TGI of CC12O[C@]3([C@H](C(=O)N4CCOC43C)[C@H]1Cl)[C@H]1O[C@H]12 (stereo partly drawn) for me? > 100 µM

# get_value(readout='TGI', item= COc1c2cc(C(C)(C)C)cc1Cc1cccc(c1OCc1cccc([N+](=O)[O-])c1)Cc1cc(C(C)(C)C)cc(c1OC)Cc1cccc(c1OCc1cccc([N+](=O)[O-])c1)Cc1cc(C(C)(C)C)cc(c1OC)Cc1cccc(c1OCc1cccc([N+](=O)[O-])c1)C2 ) > 50 µM

# lookup: TGI of Cc1nnn[n-]1.N.N.N.N.N.[Cl-].[Co+3] > 100 µM
